Target: GST-Nv-NF-kB (Ser allele) (Nematostella vectensis, UniProt A7UNT2 2-411)
Sequence: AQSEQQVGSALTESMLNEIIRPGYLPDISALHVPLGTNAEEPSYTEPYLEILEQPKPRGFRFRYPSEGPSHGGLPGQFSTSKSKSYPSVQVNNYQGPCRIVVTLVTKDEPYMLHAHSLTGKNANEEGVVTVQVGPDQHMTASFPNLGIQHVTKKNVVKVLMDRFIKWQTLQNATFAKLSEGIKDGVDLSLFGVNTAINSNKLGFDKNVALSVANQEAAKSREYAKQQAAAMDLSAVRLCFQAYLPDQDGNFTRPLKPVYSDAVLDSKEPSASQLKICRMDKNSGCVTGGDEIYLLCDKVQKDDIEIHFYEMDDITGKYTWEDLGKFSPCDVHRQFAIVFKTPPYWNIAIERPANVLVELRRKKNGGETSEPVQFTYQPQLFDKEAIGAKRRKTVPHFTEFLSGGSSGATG
Protocol Text: protein-binding microarray (PBM); PBM: ~300 nM protein, 6 mM HEPES pH 7.8, 80 mM KCl, 0.5 mM EDTA, 0.5 mM EGTA, 6% glycerol, 35 ng/ul poly-dIdC, 1% milk, 1 h, room temperature; Ap Aiptasia and Nv Nematostella (sea anemones) / Co Capsaspora / Aq Amphimedon (sponge) / Dm Drosophila / Hu human; RHD is the Rel homology domain; high values mean tight binding
Assay Context: dsDNA, one strand shown
Listing of recorded binding signal by entry.
Property: binding signal (z-score)

sequence_record=CCGATTAACATCAGAGAACCCCCTGATGTTAATCGGGTCTTGATTCGCTTGACGCTGCTG target="GST-Nv-NF-kB (Ser allele) (Nematostella vectensis, UniProt A7UNT2 2-411)" display_unit=z-score reading=6.92
sequence_record=CCGATTAACATCACAAATTACCCTGATGTTAATCGGGTCTTGATTCGCTTGACGCTGCTG target="GST-Nv-NF-kB (Ser allele) (Nematostella vectensis, UniProt A7UNT2 2-411)" display_unit=z-score reading=5.44
sequence_record=CCGATTAACATCAGGGGAAAACATGATGTTAATCGGGTCTTGATTCGCTTGACGCTGCTG target="GST-Nv-NF-kB (Ser allele) (Nematostella vectensis, UniProt A7UNT2 2-411)" display_unit=z-score reading=9.93
sequence_record=CCGATTAACATCAGGAAAGTCCCTGATGTTAATCGGGTCTTGATTCGCTTGACGCTGCTG target="GST-Nv-NF-kB (Ser allele) (Nematostella vectensis, UniProt A7UNT2 2-411)" display_unit=z-score reading=8.2
sequence_record=CCGATTAACATCAATTCACCCCCTGATGTTAATCGGGTCTTGATTCGCTTGACGCTGCTG target="GST-Nv-NF-kB (Ser allele) (Nematostella vectensis, UniProt A7UNT2 2-411)" display_unit=z-score reading=4.82
sequence_record=CCGATTAACATCACCAAAATTCCTGATGTTAATCGGGTCTTGATTCGCTTGACGCTGCTG target="GST-Nv-NF-kB (Ser allele) (Nematostella vectensis, UniProt A7UNT2 2-411)" display_unit=z-score reading=1.17
sequence_record=CCGATTAACATCAAGGGGGATCCTGATGTTAATCGGGTCTTGATTCGCTTGACGCTGCTG target="GST-Nv-NF-kB (Ser allele) (Nematostella vectensis, UniProt A7UNT2 2-411)" display_unit=z-score reading=7.04
sequence_record=CCGATTAACATCAGGGGAGAAACTGATGTTAATCGGGTCTTGATTCGCTTGACGCTGCTG target="GST-Nv-NF-kB (Ser allele) (Nematostella vectensis, UniProt A7UNT2 2-411)" display_unit=z-score reading=5.55
sequence_record=CCGATTAACATCAACTCTCCCCCTGATGTTAATCGGGTCTTGATTCGCTTGACGCTGCTG target="GST-Nv-NF-kB (Ser allele) (Nematostella vectensis, UniProt A7UNT2 2-411)" display_unit=z-score reading=5.62
sequence_record=CCGATTAACATCAGGGAATTGGATGATGTTAATCGGGTCTTGATTCGCTTGACGCTGCTG target="GST-Nv-NF-kB (Ser allele) (Nematostella vectensis, UniProt A7UNT2 2-411)" display_unit=z-score reading=3.84
sequence_record=CCGATTAACATCAGGGGGAAGAATGATGTTAATCGGGTCTTGATTCGCTTGACGCTGCTG target="GST-Nv-NF-kB (Ser allele) (Nematostella vectensis, UniProt A7UNT2 2-411)" display_unit=z-score reading=6.8
sequence_record=CCGATTAACATCAGGGGGAAAACTGATGTTAATCGGGTCTTGATTCGCTTGACGCTGCTG target="GST-Nv-NF-kB (Ser allele) (Nematostella vectensis, UniProt A7UNT2 2-411)" display_unit=z-score reading=9.8
sequence_record=CCGATTAACATCAATTCCCCTGATGATGTTAATCGGGTCTTGATTCGCTTGACGCTGCTG target="GST-Nv-NF-kB (Ser allele) (Nematostella vectensis, UniProt A7UNT2 2-411)" display_unit=z-score reading=9.02
sequence_record=CCGATTAACATCAGGGGAATTTATGATGTTAATCGGGTCTTGATTCGCTTGACGCTGCTG target="GST-Nv-NF-kB (Ser allele) (Nematostella vectensis, UniProt A7UNT2 2-411)" display_unit=z-score reading=12.9
sequence_record=CCGATTAACATCACGAAACCCCCTGATGTTAATCGGGTCTTGATTCGCTTGACGCTGCTG target="GST-Nv-NF-kB (Ser allele) (Nematostella vectensis, UniProt A7UNT2 2-411)" display_unit=z-score reading=7.65
sequence_record=CCGATTAACATCAAAACTTCCCCTGATGTTAATCGGGTCTTGATTCGCTTGACGCTGCTG target="GST-Nv-NF-kB (Ser allele) (Nematostella vectensis, UniProt A7UNT2 2-411)" display_unit=z-score reading=12.1
sequence_record=CCGATTAACATCAGTGGTACTTGTGATGTTAATCGGGTCTTGATTCGCTTGACGCTGCTG target="GST-Nv-NF-kB (Ser allele) (Nematostella vectensis, UniProt A7UNT2 2-411)" display_unit=z-score reading=1.44
sequence_record=CCGATTAACATCAAATGCCCCCCTGATGTTAATCGGGTCTTGATTCGCTTGACGCTGCTG target="GST-Nv-NF-kB (Ser allele) (Nematostella vectensis, UniProt A7UNT2 2-411)" display_unit=z-score reading=3.91
sequence_record=CCGATTAACATCAAGGGAATTTATGATGTTAATCGGGTCTTGATTCGCTTGACGCTGCTG target="GST-Nv-NF-kB (Ser allele) (Nematostella vectensis, UniProt A7UNT2 2-411)" display_unit=z-score reading=7.58
sequence_record=CCGATTAACATCAGGGGTAATTATGATGTTAATCGGGTCTTGATTCGCTTGACGCTGCTG target="GST-Nv-NF-kB (Ser allele) (Nematostella vectensis, UniProt A7UNT2 2-411)" display_unit=z-score reading=4.62
sequence_record=CCGATTAACATCAAAGTCCCCCTTGATGTTAATCGGGTCTTGATTCGCTTGACGCTGCTG target="GST-Nv-NF-kB (Ser allele) (Nematostella vectensis, UniProt A7UNT2 2-411)" display_unit=z-score reading=6.92
sequence_record=CCGATTAACATCAGGGGCGTTTATGATGTTAATCGGGTCTTGATTCGCTTGACGCTGCTG target="GST-Nv-NF-kB (Ser allele) (Nematostella vectensis, UniProt A7UNT2 2-411)" display_unit=z-score reading=3.2
sequence_record=CCGATTAACATCAGAATTTCCCCTGATGTTAATCGGGTCTTGATTCGCTTGACGCTGCTG target="GST-Nv-NF-kB (Ser allele) (Nematostella vectensis, UniProt A7UNT2 2-411)" display_unit=z-score reading=11.5
sequence_record=CCGATTAACATCACGGGAATTCCTGATGTTAATCGGGTCTTGATTCGCTTGACGCTGCTG target="GST-Nv-NF-kB (Ser allele) (Nematostella vectensis, UniProt A7UNT2 2-411)" display_unit=z-score reading=5.2
sequence_record=CCGATTAACATCAGAGACTTCCCTGATGTTAATCGGGTCTTGATTCGCTTGACGCTGCTG target="GST-Nv-NF-kB (Ser allele) (Nematostella vectensis, UniProt A7UNT2 2-411)" display_unit=z-score reading=2.19
sequence_record=CCGATTAACATCACGGGAAAACCTGATGTTAATCGGGTCTTGATTCGCTTGACGCTGCTG target="GST-Nv-NF-kB (Ser allele) (Nematostella vectensis, UniProt A7UNT2 2-411)" display_unit=z-score reading=5.49
sequence_record=CCGATTAACATCAAGAAATCCCCTGATGTTAATCGGGTCTTGATTCGCTTGACGCTGCTG target="GST-Nv-NF-kB (Ser allele) (Nematostella vectensis, UniProt A7UNT2 2-411)" display_unit=z-score reading=12.5
